study-target: cruzain (Trypanosoma cruzi, UniProt P25779);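 further: at 5 µM compound concentration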
Sequence (P25779 123-337 limits assumed): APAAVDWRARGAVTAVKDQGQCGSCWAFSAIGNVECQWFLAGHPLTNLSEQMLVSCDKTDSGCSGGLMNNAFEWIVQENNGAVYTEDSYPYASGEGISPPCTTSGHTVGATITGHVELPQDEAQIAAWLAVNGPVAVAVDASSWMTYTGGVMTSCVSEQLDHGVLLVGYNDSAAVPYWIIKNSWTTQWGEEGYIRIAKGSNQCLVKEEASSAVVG
experimental-details: biochemical
details: 0’ (no pre-incubation); sheet Screening results
Cruzain Inhibition 0’ values for the molecules below.

[
  {
    "molecule": "Oc1c(I)cc(I)c2cccnc12",
    "Cruzain Inhibition 0’": "0.2%"
  },
  {
    "molecule": "CNc1snc(C)c1C(=O)NCCOc1ccc(OC)cc1",
    "Cruzain Inhibition 0’": "-8%"
  },
  {
    "molecule": "CS(=O)(=O)N1CCC(CCn2nc(Cc3cccc4ccccc34)c3c(N)ncnc32)CC1",
    "Cruzain Inhibition 0’": "10%"
  },
  {
    "molecule": "CS(=O)(=O)c1ccc(C(=O)N(CC2CCCO2)c2nc3ccccc3s2)cc1[N+](=O)[O-] (stereo not drawn)",
    "Cruzain Inhibition 0’": "-0.3%"
  },
  {
    "molecule": "Cc1ccc2oc(-c3cc(NC(=O)Cc4ccccc4)ccc3Cl)nc2c1",
    "Cruzain Inhibition 0’": "21%"
  },
  {
    "molecule": "CC1(C)OB(O)c2ccc(C3=NOC(c4cc(Cl)c(F)c(Cl)c4)(C(F)(F)F)C3)cc21 (stereo not drawn)",
    "Cruzain Inhibition 0’": "13%"
  },
  {
    "molecule": "Brc1c(-c2ccc3c(c2)OCO3)nc2ncccn12",
    "Cruzain Inhibition 0’": "1.2%"
  },
  {
    "molecule": "NC(=O)c1cc(Br)ccc1OCCOc1ccccc1",
    "Cruzain Inhibition 0’": "8%"
  },
  {
    "molecule": "CCOC(=O)NC(=O)c1ccsc1NC(=O)c1nc2ccccc2s1",
    "Cruzain Inhibition 0’": "-18%"
  },
  {
    "molecule": "Cc1ccc(Oc2ccc(NC(=O)CNc3ccccc3N3CCCC3=O)cc2)cc1",
    "Cruzain Inhibition 0’": "0.2%"
  },
  {
    "molecule": "O=C(Nc1nnc(-c2ccc(Cl)cc2)o1)c1cccc(C(F)(F)F)c1",
    "Cruzain Inhibition 0’": "-1.6%"
  },
  {
    "molecule": "O=C(c1ccco1)N(CCCn1ccnc1)c1nc2c(Cl)cccc2s1",
    "Cruzain Inhibition 0’": "5.6%"
  },
  {
    "molecule": "Cc1ccc2nc(Cl)c(CNCc3cccs3)cc2c1",
    "Cruzain Inhibition 0’": "-0.1%"
  },
  {
    "molecule": "COc1ccccc1C(C)NCC(=O)Nc1cc(C(F)(F)F)ccc1Cl (stereo not drawn)",
    "Cruzain Inhibition 0’": "0.3%"
  },
  {
    "molecule": "CCCn1c(CNc2ccccc2O)nc2ccccc21",
    "Cruzain Inhibition 0’": "1.2%"
  },
  {
    "molecule": "Cc1cc(C)cc(COc2ccc3c(C)c(CCC(=O)O)c(=O)oc3c2C)c1",
    "Cruzain Inhibition 0’": "1.9%"
  },
  {
    "molecule": "CC(=O)NCC1CN(c2ccc(-c3ccc(CO)cc3)c(F)c2)C(=O)O1 (stereo not drawn)",
    "Cruzain Inhibition 0’": "-0.1%"
  },
  {
    "molecule": "Cn1ncc2c(N3CCOCC3)nc(NCCc3c[nH]c4ccccc34)nc21",
    "Cruzain Inhibition 0’": "17%"
  },
  {
    "molecule": "CC(=O)Nc1ccc(-c2noc(CC3CCCN(Cc4cccc(F)c4C)C3)n2)cc1 (stereo not drawn)",
    "Cruzain Inhibition 0’": "1.2%"
  },
  {
    "molecule": "Cc1cc(C2=NOC(c3cc(Cl)c(F)c(Cl)c3)(C(F)(F)F)C2)ccc1C(=O)NCc1ccc2c(c1)C(C)(C)OB2O (stereo not drawn)",
    "Cruzain Inhibition 0’": "25%"
  },
  {
    "molecule": "COc1ccc(-c2cc(NC(=O)c3ccc(F)cc3Cl)ccc2OC)cc1",
    "Cruzain Inhibition 0’": "-17%"
  }
]

====

# TbrCatL Inhibition 10’ annotations
study-target: TbrCatL (Trypanosoma brucei rhodesiense, UniProt Q95PM0)
Construct: Conor Caffrey (University of California San Diego)
Sequence (Q95PM0 entry or part of it): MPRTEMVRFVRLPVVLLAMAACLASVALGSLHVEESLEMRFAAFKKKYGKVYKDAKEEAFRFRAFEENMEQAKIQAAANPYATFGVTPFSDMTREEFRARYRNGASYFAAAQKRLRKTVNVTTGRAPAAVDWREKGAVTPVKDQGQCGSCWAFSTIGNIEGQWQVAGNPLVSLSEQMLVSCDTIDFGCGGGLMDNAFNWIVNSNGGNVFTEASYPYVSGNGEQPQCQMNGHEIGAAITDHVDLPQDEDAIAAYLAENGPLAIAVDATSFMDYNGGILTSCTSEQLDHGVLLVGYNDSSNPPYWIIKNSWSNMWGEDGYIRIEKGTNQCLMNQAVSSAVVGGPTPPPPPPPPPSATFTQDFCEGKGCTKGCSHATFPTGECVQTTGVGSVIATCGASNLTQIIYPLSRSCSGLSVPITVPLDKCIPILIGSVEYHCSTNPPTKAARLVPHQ
experimental-details: TbrCatL enzymatic inhibition assay (cleavage of fluorogenic substrate Z-FR-AMC);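 further: at 5 µM compound concentration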
Type: biochemical
details: 10’ (pre-incubation); sheet Screening results
parameter: TbrCatL Inhibition 10’ (%)

[
  {
    "compound": "CC(C)(C)C(O)C(Oc1ccc(-c2ccccc2)cc1)n1cncn1 (centres unmarked) [MMV688942]",
    "parameter": "TbrCatL Inhibition 10’",
    "scale-unit": "%",
    "recorded-value": -1.4
  },
  {
    "compound": "Nc1ncc(-c2ccc(C(F)(F)F)nc2)cc1-c1ccc(C(F)(F)F)nc1 [MMV668727]",
    "parameter": "TbrCatL Inhibition 10’",
    "scale-unit": "%",
    "recorded-value": -4.6
  },
  {
    "compound": "COc1cc2ncnc(NC3CCN(Cc4ccccc4)CC3)c2cc1OC [MMV006741]",
    "parameter": "TbrCatL Inhibition 10’",
    "scale-unit": "%",
    "recorded-value": 5.4
  },
  {
    "compound": "Cc1cc2nc(NC(=O)C(C)(C)C)nc(Cl)c2n1Cc1ccc(Cl)cc1 [MMV688704]",
    "parameter": "TbrCatL Inhibition 10’",
    "scale-unit": "%",
    "recorded-value": 16
  },
  {
    "compound": "COc1cc(N[C@@H](C)CCCN)c2ncccc2c1 [MMV000023]",
    "parameter": "TbrCatL Inhibition 10’",
    "scale-unit": "%",
    "recorded-value": 5
  },
  {
    "compound": "Clc1ccc(CN2CCN(C3=NCCN3)CC2)cc1Cl [MMV689060]",
    "parameter": "TbrCatL Inhibition 10’",
    "scale-unit": "%",
    "recorded-value": 2
  },
  {
    "compound": "O=C(NCc1ccoc1)N1CCN(Cc2ccc3c(c2)OCO3)CC1 [MMV688553]",
    "parameter": "TbrCatL Inhibition 10’",
    "scale-unit": "%",
    "recorded-value": -6.4
  },
  {
    "compound": "COc1ccccc1CNC(=O)c1cc(C2CC2)nc2c1cnn2C(C)C [MMV020517]",
    "parameter": "TbrCatL Inhibition 10’",
    "scale-unit": "%",
    "recorded-value": 9
  }
]

====

# Cruzain 0’ Inhibition per entry
study-target: cruzain (Trypanosoma cruzi, UniProt P25779);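 further: at 5 µM compound concentration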
experimental-details: biochemical
details: 0’ (pre-incubation time); sheet "Screening results"

[
  {
    "molecule": "C[C@H]1COc2c(N3CCN(C)CC3)c(F)cc3c(=O)c(C(=O)O)cn1c23",
    "Cruzain 0’ Inhibition, %": 4.7
  },
  {
    "molecule": "CC(C)(C)OC(=O)N1CCN(c2cc(-c3ccc(Oc4ccccc4)cc3)n[nH]2)CC1",
    "Cruzain 0’ Inhibition, %": -1.5
  },
  {
    "molecule": "CCCCOC(=O)Nc1cc2[nH]c(C3CCCCC3)nc2cc1N1CCCC1",
    "Cruzain 0’ Inhibition, %": 12
  },
  {
    "molecule": "COc1cccc(-c2nc3c(N4CCCC4)cccc3n2CC2CCCN2)n1 (centres unmarked)",
    "Cruzain 0’ Inhibition, %": 14
  },
  {
    "molecule": "O=C(Nc1ccc(F)c(-c2nc3ncc(-c4ccccc4)cc3[nH]2)c1)N1CCCC1",
    "Cruzain 0’ Inhibition, %": 4
  },
  {
    "molecule": "COc1ccc(-c2cnc3cnc(-c4cccc(OC(C)C)c4)cn23)cc1",
    "Cruzain 0’ Inhibition, %": -4
  },
  {
    "molecule": "COc1ccc(N(CCc2cccc(C)n2)C(=O)C2CCCCC2)cc1",
    "Cruzain 0’ Inhibition, %": -3
  },
  {
    "molecule": "COc1ccc(OC)c(NCc2ccc3nc(N)nc(N)c3c2Cl)c1",
    "Cruzain 0’ Inhibition, %": 6.6
  },
  {
    "molecule": "CN1CCC(c2cc(-c3ccncc3)c(-c3ccc(F)cc3)[nH]2)CC1",
    "Cruzain 0’ Inhibition, %": 3.7
  },
  {
    "molecule": "O=C(NCCc1ccn(-c2ccccc2)n1)C1CCCCC1",
    "Cruzain 0’ Inhibition, %": 3.2
  },
  {
    "molecule": "CCc1ccc(C(NCc2nc(N)nc(N(C)C)n2)C(C)C)cc1 (centres unmarked)",
    "Cruzain 0’ Inhibition, %": -10
  },
  {
    "molecule": "Nc1ncc(-c2cn[nH]c2)cc1-c1nc2cc(Cl)cnc2[nH]1",
    "Cruzain 0’ Inhibition, %": -3.5
  },
  {
    "molecule": "COc1cc(C2=NCCN2)ccc1-n1cc(-c2cccc(C3=NCCN3)c2)nn1",
    "Cruzain 0’ Inhibition, %": 2.4
  },
  {
    "molecule": "Cc1cc(C)n(-c2ccc(NC(=O)C3CCN(Cc4cnc(C)s4)CC3)cc2)n1",
    "Cruzain 0’ Inhibition, %": 5
  },
  {
    "molecule": "FC(F)(F)c1cc(NCCc2ccccc2)nc(-c2ccccn2)n1",
    "Cruzain 0’ Inhibition, %": -2.5
  },
  {
    "molecule": "C[C@H](C(N)=O)N1CCCC[C@H]1c1ccc(OCc2cccc(F)c2)cc1",
    "Cruzain 0’ Inhibition, %": 0.4
  },
  {
    "molecule": "NC(CC(=O)c1ccc(Cl)cc1Cl)C(Cl)(Cl)Cl (centres unmarked)",
    "Cruzain 0’ Inhibition, %": 2.5
  },
  {
    "molecule": "CCc1ccc([C@@H]2C[C@H](C(F)(F)F)n3ncc(C(=O)NCc4ccc(OC)cc4)c3N2)cc1",
    "Cruzain 0’ Inhibition, %": -9
  },
  {
    "molecule": "c1ccc(Oc2ccc(-c3cc(N4CCNCC4)[nH]n3)cc2)cc1",
    "Cruzain 0’ Inhibition, %": 2.4
  },
  {
    "molecule": "COc1cc(-c2cc(-c3ccc(S(C)(=O)=O)cc3)cnc2N)ccc1O",
    "Cruzain 0’ Inhibition, %": 1.1
  },
  {
    "molecule": "COc1ccc(-c2nn(C(C)C)c3ncnc(N)c23)cc1OC",
    "Cruzain 0’ Inhibition, %": -7
  },
  {
    "molecule": "Cc1nc(-c2ccccn2)nc(N2CCC(Cc3ccccc3)C2)c1Cl (centres unmarked)",
    "Cruzain 0’ Inhibition, %": -2
  },
  {
    "molecule": "Cc1cnc(N2CCN[C@@H](Cc3ccccc3)C2)nc1Oc1ccc(-n2ccnc2)cc1",
    "Cruzain 0’ Inhibition, %": 4.4
  },
  {
    "molecule": "O=C(Nc1ccccc1)c1ccc(-c2cc3ccncc3cc2OC2CCNCC2)s1",
    "Cruzain 0’ Inhibition, %": 5
  },
  {
    "molecule": "CC(C)=CCC/C(C)=C\\CNCCNC1C2CC3CC(C2)CC1C3 (centres unmarked)",
    "Cruzain 0’ Inhibition, %": -1.6
  },
  {
    "molecule": "CCCCc1ccc(C(=O)Nc2nccc3ccccc23)nc1",
    "Cruzain 0’ Inhibition, %": -10
  },
  {
    "molecule": "CS(=O)(=O)N1CCC(Cn2nc(Cc3cccc4ccccc34)c3c(N)ncnc32)CC1",
    "Cruzain 0’ Inhibition, %": 0.2
  },
  {
    "molecule": "COc1ccc(N(CCc2cccc(C)n2)C(C)=O)cc1",
    "Cruzain 0’ Inhibition, %": 2.8
  },
  {
    "molecule": "O=C1[C@@H](Oc2ccccc2)[C@@H](c2ccc(Cl)cc2)N1CCn1cnc2c(NCc3ccccc3)ncnc21",
    "Cruzain 0’ Inhibition, %": 0
  }
]

Numbers sourced from paper PMC9967275.
